Tested on: Vero cells
EXPERIMENT_NOTES: MTT cytotoxicity assay on Vero cells
Assay type: cell-based
pIC50: −log10 of the molar value.
MEASURED_METRIC: pIC50

[
  {
    "STRUCTURE": "Cc1c/c(=N\\NC(=S)/N=C/c2ccc(Cl)cc2Cl)oc2cc(O)ccc12",
    "MEASURED_METRIC": "pIC50",
    "QUANTITATIVE_READOUT": 3.29
  },
  {
    "STRUCTURE": "Oc1cc(/C=N/C(=S)N/N=c2\\cc(O)c3ccccc3o2)cc(O)c1O",
    "MEASURED_METRIC": "pIC50",
    "QUANTITATIVE_READOUT": 3.92
  },
  {
    "STRUCTURE": "Cc1c/c(=N\\NC(=S)/N=C/c2ccc(Br)cc2)oc2cc(O)ccc12",
    "MEASURED_METRIC": "pIC50",
    "QUANTITATIVE_READOUT": 3.83
  },
  {
    "STRUCTURE": "COc1ccc(/C=N/C(=S)N/N=c2\\cc(C)c3ccc(O)cc3o2)cc1",
    "MEASURED_METRIC": "pIC50",
    "QUANTITATIVE_READOUT": 3.54
  },
  {
    "STRUCTURE": "Oc1c/c(=N\\NC(=S)/N=C/c2cccc3ccccc23)oc2ccccc12",
    "MEASURED_METRIC": "pIC50",
    "QUANTITATIVE_READOUT": 4.06
  }
]
